target: GTPase KRas (Homo sapiens, UniProt P01116, G12C); experiment: Inhibition of biotinylated KRAS G12C mutant (unknown origin) assessed as inhibition of SOS-catalyzed nucleotide exchange preincubated for 60 mins followed by addition of human recombinant SOS protein and unlabeled GTP and measured after 60 mins by TR-FRET analysis
Sequence (P01116 whole entry G12C): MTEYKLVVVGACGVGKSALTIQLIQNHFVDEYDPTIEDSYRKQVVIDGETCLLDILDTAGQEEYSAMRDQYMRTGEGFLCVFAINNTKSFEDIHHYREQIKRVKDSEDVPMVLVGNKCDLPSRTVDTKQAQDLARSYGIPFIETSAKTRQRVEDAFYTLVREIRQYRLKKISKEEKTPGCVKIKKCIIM
Under this convention, Met denotes IC50 strictly below 5 nM and Not met denotes IC50 at or above 5 nM.

C=CC(=O)N1CCN(c2cc(C(=O)N[C@H](C)CN(C)C)nc3c2CCN(c2c(Cl)c(C)cc4[nH]ncc24)C3)C[C@@H]1CC#N | Met

Find out if reported IC50 for C=CC(=O)N1CCN(c2cc(C(=O)NC(C)CN3CCC(C)(O)C3)nc3c2CCN(c2cccc4cccc(C)c24)C3)C[C@@H]1CC#N (stereo in doubt; 76) is less than 5 nM
Not met

Report whether reported IC50 is lower than 5 nM (strictly) for C=CC(=O)N1CCN(c2cc(C(=O)N[C@H](C)CN3CC(C)(O)C3)nc3c2CCN(c2cccc4cccc(C)c24)C3)C[C@@H]1CC#N
Met

Is it true that IC50 reported for C=CC(=O)N1CCN(c2cc(C(=O)NC[C@H]3CCCN3)nc3c2CCN(c2cccc4cccc(C)c24)C3)C[C@@H]1CC#N is less than 5 nM?
Not met

Please let me know if C=CC(=O)N1CCN(c2cc(C(=O)NC3(CC)CCNC3)nc3c2CCN(c2cccc4cccc(C)c24)C3)C[C@@H]1CC#N (some centres not stated) shows IC50 below 5 nM.
Met

Consider C=CC(=O)N1CCN(c2cc(C(=O)N[C@@H]3CCC[C@H]3N(C)C)nc3c2CCN(c2cccc4cccc(C)c24)C3)C[C@@H]1CC#N . Does its IC50 lie strictly below 5 nM?
Met

----------
target: GTPase KRas (Homo sapiens, UniProt P01116, G12C); assay: Inhibition of biotinylated KRAS G12C mutant (unknown origin) assessed as inhibition of SOS-catalyzed nucleotide exchange preincubated for 60 mins followed by addition of human recombinant SOS protein and unlabeled GTP and measured after 60 mins by TR-FRET analysis
PROPERTY_MEASURED: pIC50
// pIC50 here means minus log10 of the molar concentration (mol/L)

The cases that follow already have their pIC50 on record.
C=CC(=O)N1CCN(c2cc(C(=O)NC3(C)CCCNC3)nc3c2CCN(c2cccc4cccc(C)c24)C3)C[C@@H]1CC#N (some centres undefined) | 8.27
C=C(F)C(=O)N1CCN(c2cc(C(=O)N[C@H](C)CN(C)C)nc3c2CCN(c2cccc4cccc(C)c24)C3)C[C@@H]1CC#N | 8.08
C=CC(=O)N1CCN(c2cc(C(=O)NC(C)CN3CCC(C)(O)C3)nc3c2CCN(c2cccc4cccc(C)c24)C3)C[C@@H]1CC#N (stereo in doubt; 75) | 8.14

Would you kindly look at the next entry?
Recorded pIC50 (molecule C=CC(=O)N1CCN(c2cc(C(=O)NCC3CCCCN3)nc3c2CCN(c2cccc4cccc(C)c24)C3)C[C@@H]1CC#N (some centres undefined) ): 8.08
